biological target: T1, Recombinant Human DLL4 (delta-like protein 4) (human, UniProt Q9NR61 27-524); assay: ELISA, DLL4 coated on plate, Fab at 0 nM (no-Fab background, first 0 row)
T1 construct: Bought recombinant human DLL4 (R&D Systems Cat#1506-D4/CF); also called rHuman DLL4; Delta-like 4
readoutType: ELISA signal
Give a plain numeric answer without units written out.

Which ELISA signal is reported for this binder? Fab VH1-46_IGHD6-6*01_IGHJ1*01 S102A/S103P/S104F/H111F & L6_IGKJ1*01 S31H (Fab, V domains shown, Tested as a Fab; also called APFF & S31H) VH: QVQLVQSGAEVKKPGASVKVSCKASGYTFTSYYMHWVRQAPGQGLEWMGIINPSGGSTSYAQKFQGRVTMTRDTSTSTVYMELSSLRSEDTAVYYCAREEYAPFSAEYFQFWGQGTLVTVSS VL: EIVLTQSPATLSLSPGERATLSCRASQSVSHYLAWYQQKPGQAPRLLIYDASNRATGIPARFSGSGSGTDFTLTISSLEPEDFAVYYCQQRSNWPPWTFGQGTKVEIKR
0
